tested on: HT-29 (human colon adenocarcinoma); experiment: Cytotoxic activity, HT-29; format: cell-based; settings: mean ±SD
Decision: IC50 beneath 10 µM gives MET; IC50 meeting or exceeding 10 µM gives NOT MET.

I'd appreciate it if you could check whether C=C(C)[C@@H]1CC[C@]2(C(=O)n3ccnc3C)CC[C@]3(C)[C@H](CC[C@@H]4[C@@]5(C)CCC(=O)C(C)(C)[C@@H]5CC[C@]43C)[C@@H]12 has IC50 smaller than 10 µM.
MET

I'd appreciate it if you could check whether C=C(C)[C@@H]1CC[C@]2(C(=O)OC)CC[C@]3(C)[C@H](CC[C@@H]4[C@@]5(C)CC[C@H](OC(=O)n6ccnc6C)C(C)(C)[C@@H]5CC[C@]43C)[C@@H]12 has IC50 smaller than 10 µM.
NOT MET

I'd appreciate it if you could check whether Cc1nccn1C(=O)OC[C@]12CC[C@@H]([C@@H](C)C=O)C1[C@H]1CC[C@@H]3[C@@]4(C)CC[C@H](O)C(C)(C)[C@@H]4CC[C@@]3(C)[C@]1(C)CC2 (some centres unmarked) has IC50 smaller than 10 µM.
NOT MET

I'd appreciate it if you could check whether C=C(COC)[C@@H]1CC[C@]2(COC(=O)n3ccnc3C)CC[C@]3(C)[C@H](CC[C@@H]4[C@@]5(C)CC[C@H](O)C(C)(C)[C@@H]5CC[C@]43C)[C@@H]12 has IC50 smaller than 10 µM.
NOT MET

I'd appreciate it if you could check whether C=C(C)[C@@H]1CC[C@]2(COC(=O)n3ccnc3C)CC[C@]3(C)[C@H](CC[C@@H]4[C@@]5(C)CC[C@H](O)C(C)(C)[C@@H]5CC[C@]43C)[C@@H]12 has IC50 smaller than 10 µM.
NOT MET

I'd appreciate it if you could check whether C=C(C)[C@@H]1CC[C@]2(C(=O)n3ccnc3C)CC[C@]3(C)[C@H](CC[C@@H]4[C@@]5(C)CC[C@H](OC(=O)n6ccnc6C)C(C)(C)[C@@H]5CC[C@]43C)[C@@H]12 has IC50 smaller than 10 µM.
MET

I'd appreciate it if you could check whether C=C(C)[C@@H]1CC[C@]2(C(=O)n3ccnc3C)CC[C@]3(C)[C@H](CC[C@@H]4[C@@]5(C)C=CC(=O)C(C)(C)[C@@H]5CC[C@]43C)[C@@H]12 has IC50 smaller than 10 µM.
MET

I'd appreciate it if you could check whether C=C(C)[C@@H]1CC[C@]2(C(=O)O)CC[C@]3(C)[C@H](CC[C@@H]4[C@@]5(C)C=C(OC(=O)n6ccnc6C)C(=O)C(C)(C)[C@@H]5CC[C@]43C)[C@@H]12 has IC50 smaller than 10 µM.
MET

----------
System: HepG2 (human hepatocellular carcinoma)
Assay: Cytotoxic activity, MTT assay, HepG2
Type: cell-based
Conditions: 72 h, mean ±SD
Procedure: The cytotoxic of compounds of formulas (I) and (II) 14-50 was assessed towards human cancer (HepG2, HeLa and Jurkat) cell lines (Table 3 below). Compounds presented on Table 4 were also tested against a non-tumoral liver cell line (Chang liver). The cell viability of HeLa, HepG2 and Chang liver cells was determined by the MTT assay. […] For the Jurkat cells, the cell viability was determined by the XTT assay. […]
Exercise: for every item that follows, state its recorded IC50.
// note: answer is a bare numeric in µM

Supply recorded IC50 for C=C(C)[C@@H]1CC[C@]2(C(=O)O)CC[C@]3(C)[C@H](CC[C@@H]4[C@@]5(C)CC[C@H](OC(=O)n6ccnc6)C(C)(C)[C@@H]5CC[C@]43C)[C@@H]12 here.
6.2

Supply recorded IC50 for C=C(COC)[C@@H]1CC[C@]2(COC(=O)n3ccnc3)CC[C@]3(C)[C@H](CC[C@@H]4[C@@]5(C)CC[C@H](OC(=O)n6ccnc6)C(C)(C)[C@@H]5CC[C@]43C)[C@@H]12 here.
19.6

Supply recorded IC50 for C=C(C)[C@@H]1CC[C@]2(C(=O)n3ccnc3)CC[C@]3(C)[C@H](CC[C@@H]4[C@@]5(C)C=C(OC(=O)n6ccnc6)C(=O)C(C)(C)[C@@H]5CC[C@]43C)[C@@H]12 here.
4

Supply recorded IC50 for C=C(C)[C@@H]1CC[C@]2(C(=O)n3ccnc3C)CC[C@]3(C)[C@H](CC[C@@H]4[C@@]5(C)CC[C@H](OC(=O)n6ccnc6C)C(C)(C)[C@@H]5CC[C@]43C)[C@@H]12 here.
11.6

Supply recorded IC50 for C=C(C)[C@@H]1CC[C@]2(C(=O)O)CC[C@]3(C)[C@H](CC[C@@H]4[C@@]5(C)C=C(OC(=O)n6ccnc6C)C(=O)C(C)(C)[C@@H]5CC[C@]43C)[C@@H]12 here.
6.8

Supply recorded IC50 for C[C@@H](C=O)[C@@H]1CC[C@]2(COC(=O)n3ccnc3)CC[C@]3(C)[C@H](CC[C@@H]4[C@@]5(C)CC[C@H](O)C(C)(C)[C@@H]5CC[C@]43C)[C@@H]12 here.
11.5

Supply recorded IC50 for C=C(C)[C@@H]1CC[C@]2(CO)CC[C@]3(C)[C@H](CC[C@@H]4[C@@]5(C)CC[C@H](OC(=O)n6ccnc6)C(C)(C)[C@@H]5CC[C@]43C)[C@@H]12 here.
2
